- STUDY_SYSTEM: SARS-CoV-2 spike protein bearing furin mutation and truncation in retention sequence, presented in t (SARS-CoV-2, UniProt P0DTC2 14-1273)
- EXPERIMENTAL_DETAILS: cell-based or functional assay
REPORTED_ENDPOINT: PV neutralization % (Ab 1 ug/mL) (%)
Give bare numbers, in %.

>  <BINDER>
YANG-2304 (antibody, V domains shown) VH: QVQLVQSGTEVKKPGASVKVSCKVSGYTLPELAIHWVRQAPGKGLEWMGTFDPEDGETICAQKFQGRVTMTEDTSTDTAYMDLSSLRSEDTAVYYCATTSIIAARWWFDPWGQGTLVTVSS VL: QSALTQPPSASGSPGQSVTISCTGTSSDVGGYDYVSWYQQHPGKAPKLMIYEVSKRPSGVPDRFSGSKSGNTASLTVSGLQAEDEADYYCSSFAGSNNVVFGGGAKLTVL

>  <UOM>
%

>  <PV neutralization % (Ab 1 ug/mL)>
52.8

$$$$
>  <BINDER>
YANG-2207 (antibody, V domains shown) VH: QMQLVQSGAEVKKPGASVKISCKTSGYTFTNYYMVWVRQAPGQGLEWMGIIKPSGGNTIYAQKFQGRVTMTRDTSTNTVYLDLSSLRSEDTAVYYCARTGNRAFDVWGHGTMVTVSS VL: QSVLTQPPSVSAAPGQKVTISCSGSSSNIGNNFVSWYQQFPGTAPKLLIYDNNKRPSGIPDRFSGSKSGTSATLGITGLQTGDEADYYCGTWDSSLGAGVFGGGTKLTVL

>  <UOM>
%

>  <PV neutralization % (Ab 1 ug/mL)>
57.8

$$$$

Moving on to another binder below.
Recorded result, YANG-2303 (antibody, V domains shown) VH: QVQLVQSGAEVKKPGASVRVSCKVSGYTLPELAIHWVRQAPGKGLEWMGGFDPEDGETIYAQKFQGRVIMTEDTSTDTAYMDLSSLRSEDTAVYYCVKTWAAPGYNYGLDTWGQGTTVTVSS VL: EIVLTQSPGILSLSPGESATLSCRASQSIASNYLAWFQQKPGQAPRLLIYGASSRAAGFPDRFSGSGSGTDFTLTIKRLEPEDSAVYYCQHYGSSPCSFGQGTNLEIK , PV neutralization % (Ab 1 ug/mL): 58.6
